Reference for the values: paper PMC4336329

Quick reference for hERG current change (%, negative = inhibition) at 1uM among some molecules
- Assay target: human ether-à-go-go-related gene (hERG) potassium channel (human, UniProt Q12809)
- Sequence (Q12809 whole entry, looked up): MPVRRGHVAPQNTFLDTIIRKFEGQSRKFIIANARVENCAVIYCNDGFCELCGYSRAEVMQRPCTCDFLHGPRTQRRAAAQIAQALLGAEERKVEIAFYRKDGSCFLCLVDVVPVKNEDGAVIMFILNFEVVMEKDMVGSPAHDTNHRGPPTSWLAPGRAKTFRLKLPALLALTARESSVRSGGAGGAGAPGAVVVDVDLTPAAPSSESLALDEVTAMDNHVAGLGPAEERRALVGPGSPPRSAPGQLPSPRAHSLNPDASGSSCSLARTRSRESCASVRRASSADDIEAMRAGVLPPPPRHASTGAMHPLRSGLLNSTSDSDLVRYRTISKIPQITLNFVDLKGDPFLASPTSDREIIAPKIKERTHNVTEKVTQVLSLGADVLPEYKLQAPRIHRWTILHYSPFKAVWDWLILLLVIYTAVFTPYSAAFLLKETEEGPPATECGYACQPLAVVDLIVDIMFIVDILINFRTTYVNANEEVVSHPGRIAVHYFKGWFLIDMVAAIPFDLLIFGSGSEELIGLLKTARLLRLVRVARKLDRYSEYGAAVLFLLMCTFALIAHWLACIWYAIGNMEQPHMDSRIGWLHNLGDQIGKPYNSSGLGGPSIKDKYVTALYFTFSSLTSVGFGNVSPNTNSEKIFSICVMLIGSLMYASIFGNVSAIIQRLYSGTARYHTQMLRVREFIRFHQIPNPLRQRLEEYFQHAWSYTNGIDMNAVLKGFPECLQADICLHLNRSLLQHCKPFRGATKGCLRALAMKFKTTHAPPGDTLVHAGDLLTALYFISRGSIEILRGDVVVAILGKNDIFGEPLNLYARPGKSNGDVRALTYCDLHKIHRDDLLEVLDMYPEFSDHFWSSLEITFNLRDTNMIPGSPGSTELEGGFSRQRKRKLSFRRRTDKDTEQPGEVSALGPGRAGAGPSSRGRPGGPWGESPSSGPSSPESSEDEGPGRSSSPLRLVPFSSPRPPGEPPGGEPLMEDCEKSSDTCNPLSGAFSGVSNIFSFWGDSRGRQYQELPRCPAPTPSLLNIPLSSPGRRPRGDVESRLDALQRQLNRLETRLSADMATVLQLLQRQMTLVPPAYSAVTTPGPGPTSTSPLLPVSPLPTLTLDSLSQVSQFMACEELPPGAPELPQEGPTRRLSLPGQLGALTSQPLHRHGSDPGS
- Protocol: primary screen, population patch clamp on CHO cells stably expressing hERG; higher = less effect of the substance
Out of some 310,000 compounds screened, about 2,200 (0.71%) showed an effect of 50% or more. The effect is printed as a negative number. The full list was thinned out, with strong results kept by preference.
Just the number in %, nothing appended.

Fill blank: measured hERG current change (%, negative = inhibition) at 1uM of the molecule `CCCn1c(=N)c(C(=O)NC2CCCC2)cc2c(=O)n3cccc(C)c3nc21` is ____. -84.1

Fill blank: measured hERG current change (%, negative = inhibition) at 1uM of the molecule `Nc1nc(N)c(N=Nc2ccc(C(=O)O)cc2)c(N)n1` is ____. 8.04

Fill blank: measured hERG current change (%, negative = inhibition) at 1uM of the molecule `Cc1occc1-c1nnc(SCC(=O)Nc2nccs2)n1Cc1ccco1` is ____. 3.28

Fill blank: measured hERG current change (%, negative = inhibition) at 1uM of the molecule `Cc1cccn2c(=O)c3cc(C(=O)NC4CCCC4)c(=N)n(CCCN4CCOCC4)c3nc12` is ____. -77.5

Fill blank: measured hERG current change (%, negative = inhibition) at 1uM of the molecule `Cc1csc(NC(=O)CSc2nnc(-c3ccoc3C)n2Cc2ccco2)n1` is ____. -78.4

---

Quick reference for hERG current change (%, negative = inhibition) at 1uM among some compounds
- Assay target: human ether-à-go-go-related gene (hERG) potassium channel (human)
- Protocol: primary screen, population patch clamp on CHO cells stably expressing hERG; higher = less effect of the substance
The campaign covered roughly 310,000 compounds. About 2,200 (0.71%) showed an effect of 50% or more. Effects have a minus sign here. The list comes from a sample in which strong results are over-represented; it also holds close analogues and randomly drawn compounds.
Just the number in %, nothing appended.

Cc1ccc(C(=O)N/C(=C\c2cccs2)C(=O)NCCCn2ccnc2)cc1 ... -66
CC(C)c1ccc(C(N)=S)cc1 ... 7.86
Cc1ccc2nc3c(cc(C(=O)NCC4CCCO4)c(=N)n3CCCOC(C)C)c(=O)n2c1 (centres unmarked) ... -72.5
Cl.Nc1nc(N2CCN(c3ccccn3)CC2)nc2ccccc12 ... -52.8
COc1ccc(CCNC(=O)c2ccc3c(c2)OCO3)cc1 ... 11.4

Find the measured hERG current change (%, negative = inhibition) at 1uM: item Br.CC1CC(C)CN(CC(=O)c2ccc(OC(F)F)cc2)C1 (centres unmarked) , target or system human ether-à-go-go-related gene (hERG) potassium channel (human). -96.1

Find the measured hERG current change (%, negative = inhibition) at 1uM: item `COc1cc(/C(C)=N/N2CCN(Cc3ccc(C)cc3)CC2)ccc1O` , target or system human ether-à-go-go-related gene (hERG) potassium channel (human). -3.97

Find the measured hERG current change (%, negative = inhibition) at 1uM: item `COc1ccc(C(=O)N/C(=C/c2cccs2)C(=O)NCCCn2ccnc2)cc1OC` , target or system human ether-à-go-go-related gene (hERG) potassium channel (human). 0.585

Find the measured hERG current change (%, negative = inhibition) at 1uM: item `COc1ncnc2c1oc1nc(CC(C)C)c3c(c12)CC(C)(C)OC3` , target or system human ether-à-go-go-related gene (hERG) potassium channel (human). -10.6

Find the measured hERG current change (%, negative = inhibition) at 1uM: item `Cc1ccc(S(=O)(=O)N2CCC(C(=O)N3CCC3)CC2)cc1` , target or system human ether-à-go-go-related gene (hERG) potassium channel (human). 11.3

Find the measured hERG current change (%, negative = inhibition) at 1uM: item `Br.COc1ccc(C(=O)CN2CCCCC2)cc1` , target or system human ether-à-go-go-related gene (hERG) potassium channel (human). 13.9

Find the measured hERG current change (%, negative = inhibition) at 1uM: item Br.O=C(CN1CCCCC1CO)c1ccc(OC(F)F)cc1 (centres unmarked) , target or system human ether-à-go-go-related gene (hERG) potassium channel (human). -21.3

---

Quick reference for hERG current change (%, negative = inhibition) at 1uM among some molecules
- Assay target: human ether-à-go-go-related gene (hERG) potassium channel (human)
- Protocol: primary screen, population patch clamp on CHO cells stably expressing hERG; higher = less effect of the substance
Out of some 310,000 compounds screened, about 2,200 (0.71%) showed an effect of 50% or more. Effects have a minus sign here. This is one part of a sample in which strong results are shown more often than they occur.
Just the number in %, nothing appended.

Fill blank: measured hERG current change (%, negative = inhibition) at 1uM of the molecule Cc1ccc(N2CCN(CCCCN3C(=O)C4CCCN4C3=O)CC2)cc1.Cl (centres unmarked) is ____. -3.91

Fill blank: measured hERG current change (%, negative = inhibition) at 1uM of the molecule O=C(CCN1C(=O)C2C3C=CC(C3)C2C1=O)N1CCN(c2ccc([N+](=O)[O-])cc2)CC1 (centres unmarked) is ____. -49.5

Fill blank: measured hERG current change (%, negative = inhibition) at 1uM of the molecule CCN1CCN(C(c2ccc(OC)cc2)c2nnnn2Cc2ccc3c(c2)OCO3)CC1.Cl (centres unmarked) is ____. -17.4

Fill blank: measured hERG current change (%, negative = inhibition) at 1uM of the molecule `COC(=O)c1ccc(NC(=O)CN2CCN(S(=O)(=O)c3cc(Cl)ccc3OC)CC2)cc1` is ____. 10.2

Fill blank: measured hERG current change (%, negative = inhibition) at 1uM of the molecule `Cc1c(Cl)c(C(=O)Nc2nc3ccccc3n2CCN2CCCCC2)nn1C` is ____. -61.5

Fill blank: measured hERG current change (%, negative = inhibition) at 1uM of the molecule `COc1ccc(/C=N/NC(=O)c2ccc(C)cc2)cc1CN1CCN(c2ccc(F)cc2)CC1` is ____. -27

Fill blank: measured hERG current change (%, negative = inhibition) at 1uM of the molecule Cl.Nc1ccc(N2CCN(CCCCN3C(=O)C4CCCN4C3=O)CC2)cc1.O (centres unmarked) is ____. 18.3

---

- Assay target: human ether-à-go-go-related gene (hERG) potassium channel (human, UniProt Q12809)
- Protocol: primary screen, population patch clamp on CHO cells stably expressing hERG; higher = less effect of the substance
In all, about 310,000 compounds went through this assay and about 2,200 (0.71%) showed an effect of 50% or more. Effects have a minus sign here. Shown is part of a subset that was picked to be rich in strong results.
Property measured: hERG current change (%, negative = inhibition) at 1uM (%)
Just the number in %, nothing appended.

CCOC(=O)c1cc2[nH]c3ccccc3c2[n+](-c2ccc([N+](=O)[O-])cc2)c1N.O=C([O-])C(F)(F)F ... -13.8

Fill blank: measured hERG current change (%, negative = inhibition) at 1uM of the compound `CCN(CC)CCN1C(=O)Cn2c(C)c(C)c3cccc1c32.O=C(O)C(O)C(O)C(=O)O` is ____. -56.1

Fill blank: measured hERG current change (%, negative = inhibition) at 1uM of the compound CCOc1ccc(C(=O)NC2CC3CCCC(C2)N3Cc2ccccc2)cc1 (centres unmarked) is ____. -20.4

---

- Assay target: human ether-à-go-go-related gene (hERG) potassium channel (human)
- Protocol: primary screen, population patch clamp on CHO cells stably expressing hERG; higher = less effect of the substance
Hit rate of the full screen: of about 310,000 compounds, about 2,200 (0.71%) showed an effect of 50% or more. The effect is printed as a negative number. For the sample, strong results were picked, then their nearest neighbours and some compounds at random.
Property measured: hERG current change (%, negative = inhibition) at 1uM
Your answer should be a number followed by the unit of measure.

Example results:
CC/C(=N\NC(=O)c1ccc(N2CCCC2=O)cc1)c1ccccc1 ... 10.8%
CC(=O)Nc1ccc(NC(=O)C(C)Sc2n[nH]c(-c3ccc(C)cc3)n2)cc1 (stereo not shown) ... 8.42%
Cc1cccc(NC(=O)c2cc([N+](=O)[O-])ccc2N2CCN(C)CC2)c1 ... -41.2%

Fill blank: measured hERG current change (%, negative = inhibition) at 1uM of the compound `CN1CCN(c2ccccc2NC(=O)c2ccc([N+](=O)[O-])cc2Cl)CC1` is ____. 0.769%

---

- Assay target: human ether-à-go-go-related gene (hERG) potassium channel (human)
- Protocol: primary screen, population patch clamp on CHO cells stably expressing hERG; higher = less effect of the substance
In all, about 310,000 compounds went through this assay and about 2,200 (0.71%) showed an effect of 50% or more. The effect is printed as a negative number. Only a selection was taken, and strong results are over-represented in it overall.
Property measured: hERG current change (%, negative = inhibition) at 1uM (%)
Just the number in %, nothing appended.

Example results:
Cc1ccc(Cn2c(=N)c(C(=O)NC3CCCCC3)cc3c(=O)n4ccccc4nc32)cc1 ... -5.62
COc1ccc(C(=O)N/N=C/c2cc(Br)ccc2O)cc1OC ... 14.7
C[n+]1c2n(c3ccccc31)N=C(c1ccc(-c3ccccc3)cc1)CS2.[Br-] ... -39
CCOc1ccc(S(=O)(=O)n2nc(C)cc2C)cc1 ... 13.8
N=c1c(C(=O)NC2CCCCC2)cc2c(=O)n3ccccc3nc2n1Cc1ccco1 ... -59.1

Find the measured hERG current change (%, negative = inhibition) at 1uM: item CCO/C=C/C(O)(CNC(=O)COc1ccccc1F)C(F)(F)F (stereo not drawn) , target or system human ether-à-go-go-related gene (hERG) potassium channel (human). 19.8

Find the measured hERG current change (%, negative = inhibition) at 1uM: item `Cc1ccc(Cn2c(=N)c(S(=O)(=O)c3ccc(C)cc3)cc3c(=O)n4ccccc4nc32)cc1` , target or system human ether-à-go-go-related gene (hERG) potassium channel (human). 6.66

Find the measured hERG current change (%, negative = inhibition) at 1uM: item `C[n+]1c2n(c3ccccc31)N=C(c1ccc(Br)cc1)CS2.[Br-]` , target or system human ether-à-go-go-related gene (hERG) potassium channel (human). -53.1

Find the measured hERG current change (%, negative = inhibition) at 1uM: item `Cc1ccc(S(=O)(=O)c2cc3c(=O)n4ccccc4nc3n(Cc3ccco3)c2=N)cc1C` , target or system human ether-à-go-go-related gene (hERG) potassium channel (human). -6.2
